Numbers sourced from patent US20210292393A1.

- subject of test: SARS-CoV-2 full length spike protein, D614G mutant (SARS-CoV-2, UniProt P0DTC2 14-1273)
metric name: median fluorescence intensity, fold over isotype control (fold over isotype)
Numbers only here, please. The scale is fold over isotype.

Query: Name the recorded median fluorescence intensity, fold over isotype control of the binder listed here: antibody 286 (antibody, V domains shown) VH: QVHLVESGGGVVQPGKSLRLSCAGSGFIFSDFGMHWVRQSPGKGLEWVAVVSYDGSVTKYSDSFEGRFTISRDNSKNTLYLQMDSLRPDDTAIYYCAKGQGANLLHYWGKGILVTVSS VL: DVVLTQSPLSLPVTLGQPASISCRSSESLVYTDGDTYLHWFHQRPGQSPRRLIYKVSNRDSGVPDRFSGSGSGTDFTLKISRVEAEDVGVYYCMQGTHWPFTFGPGTKVDIK
Result: 6.17
